Molecular target: T1, human VEGF165 (human, UniProt P15692-4 27-191)
T1 construct: Bought protein; panning target, amine-coupled to CM5 chips for BIAcore, coated on plates; also called hVEGF165; hVEGF
T1 sequence (P15692 other isoform, or with tags, fused parts or gaps limits assumed): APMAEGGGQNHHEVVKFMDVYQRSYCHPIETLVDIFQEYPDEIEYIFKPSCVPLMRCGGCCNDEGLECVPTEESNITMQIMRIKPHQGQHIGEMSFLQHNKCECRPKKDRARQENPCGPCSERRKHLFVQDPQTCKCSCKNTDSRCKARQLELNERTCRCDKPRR
Assay: SPR (BIAcore 3000), VEGF165 coupled to CM5, peptide injected, TNF-alpha reference lane; two state reaction model with conformation change; overall KD of the two state fit
Ends that are not written are not given here.
Measurement Kind: pKd
Scale: negative log10 of molar concentration, which is what pKd denotes.

Form: binder = ACYNLYGWTC (cysteine pairing not given here; also: biotinylated (site not given here), Synthetic peptide (FMOC chemistry, SynPep)) [biotinylated peptide CK37281] ; pKd = 5.72
